target: T1, human CD137-Fc (human, biotin-labeled); assay: bead ELISA on biotin-human CD137-Fc with 125 pmol/well free CD3e peptide as competitor;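 note: Streptavidin-coated magnetic beads in blocking buffer as the capture surface, well signal read as fluorescence 2 min after adding APS-5 substrate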
T1 construct: if 90 already holds the Fc, drop the second piece; also called biotin-labeled human CD137 fused to human IgG1 Fc fragment; biotin-human CD137-Fc; not shown: human IgG1 Fc fragment
TEST READOUT: ELISA signal
I'd appreciate a reply containing only the number, no unit.

Consider the worked cases shown below.
* dBBDu186 (antibody, V domains shown, Human IgG1; light chain GLS3000 (kappa)) VH: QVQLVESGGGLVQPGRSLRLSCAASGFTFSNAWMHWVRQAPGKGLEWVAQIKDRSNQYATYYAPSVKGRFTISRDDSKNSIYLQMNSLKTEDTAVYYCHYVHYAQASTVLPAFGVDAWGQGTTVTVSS VL: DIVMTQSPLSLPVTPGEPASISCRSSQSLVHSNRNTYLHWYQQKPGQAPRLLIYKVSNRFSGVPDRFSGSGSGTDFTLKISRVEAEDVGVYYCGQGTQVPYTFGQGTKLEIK | 2500
* dBBDu139 (antibody, V domains shown, Human IgG1; light chain GLS3000 (kappa)) VH: QVQLVESGGGLVQPGRSLRLSCAASGFTFSNAWMHWVRQAPGKGLEWVAQIKDRGNAYNAYYAESVKGRFTISRDDSKNSIYLQMNSLKTEDTAVYYCRFVHYRHPLLHIQYGVDAWGQGTTVTVSS VL: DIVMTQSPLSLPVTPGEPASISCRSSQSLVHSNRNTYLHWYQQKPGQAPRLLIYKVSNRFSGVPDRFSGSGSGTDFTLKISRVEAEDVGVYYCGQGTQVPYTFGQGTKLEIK | 1920

The value of ELISA signal measured for the binder dBBDu179 (antibody, V domains shown, Human IgG1; light chain GLS3000 (kappa)) VH: QVQLVESGGGLVQPGRSLRLSCAASGFTFSNAWMHWVRQAPGKGLEWVAQIKDRSNQYATYYAPSVKGRFTISRDDSKNSIYLQMNSLKTEDTAVYYCHYVHYASASTVLPAFGVDAWGQGTTVTVSS VL: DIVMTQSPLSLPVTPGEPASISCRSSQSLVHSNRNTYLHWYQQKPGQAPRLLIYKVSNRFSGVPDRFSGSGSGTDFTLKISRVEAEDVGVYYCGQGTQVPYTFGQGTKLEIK turned out to be 2620
